EC50 for assorted compounds
# Tested on: Ctenocephalides felis
# assay.remarks: Efficacy of compounds against fleas following ingestion (membrane feeding on treated bovine blood)
# Type: in vivo
# measurement.conditions: 10 adult Ctenocephalides felis feeding on treated bovine blood; assessment at 72 hours after application vs untreated controls
# Source text: A cylindrical test container was filled with 10 adult Ctenocephalides felis. A cylindrical well was closed on one end with a self-sealing flexible film and placed on top of the test container in such a position that the fleas could pierce the film and feed on the contents of the cylinder. The test compound solution was then pipetted into bovine blood and added to the well. […]

compound | EC50
O=C(NN1CCCN(CC(F)(F)F)C1=O)c1ccc(C2=NOC(c3cc(C(F)(F)F)cc(C(F)(F)F)c3)(C(F)(F)F)C2)cc1C(F)(F)F (stereo not drawn) | ≤ 1 µg/mL
O=C1CN(C(=O)c2ccc(C3=NOC(c4cc(Cl)cc(C(F)(F)F)c4)(C(F)(F)F)C3)c3ccccc23)CN1CCC(F)(F)F (stereo not drawn) | ≤ 0.1 µg/mL
Cc1cc(C2=NOC(c3cc(Cl)cc(C(F)(F)F)c3)(C(F)(F)F)C2)ccc1C(=O)NN1CCCN(CC(F)(F)F)C1=O (stereo not drawn) | ≤ 1 µg/mL
O=C(c1ccc(C2=NOC(c3cc(Cl)cc(Cl)c3)(C(F)(F)F)C2)cc1C(F)(F)F)N1CC(=O)N(CC(F)(F)F)C(=O)C1 (stereo not drawn) | ≤ 10 µg/mL
O=C1CN(C(=O)c2ccc(C3=NOC(c4cc(Cl)cc(Cl)c4)(C(F)(F)F)C3)cc2C(F)(F)F)CN1CC(F)(F)F (stereo not drawn) | ≤ 1 µg/mL
O=C(NN1CCCN(CC(F)(F)F)C1=O)c1ccc(C2=NOC(c3cc(Cl)cc(C(F)(F)F)c3)(C(F)(F)F)C2)cc1C(F)(F)F (stereo not drawn) | ≤ 1 µg/mL
